Molecular target: human MRGPRD (Homo sapiens)
Sequence (Q8TDS7 whole entry): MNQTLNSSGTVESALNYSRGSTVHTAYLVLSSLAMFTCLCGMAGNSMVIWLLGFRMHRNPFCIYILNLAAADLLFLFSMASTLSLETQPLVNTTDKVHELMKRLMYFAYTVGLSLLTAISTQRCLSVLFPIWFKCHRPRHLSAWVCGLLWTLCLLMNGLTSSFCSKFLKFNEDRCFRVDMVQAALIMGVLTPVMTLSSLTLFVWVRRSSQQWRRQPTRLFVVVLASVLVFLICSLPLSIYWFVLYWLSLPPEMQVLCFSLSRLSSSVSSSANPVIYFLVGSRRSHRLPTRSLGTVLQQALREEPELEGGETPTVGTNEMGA
Experiment: MRGPRD antagonist activity, IP-One HTRF assay in CHO cells stably expressing human MRGPRD (versus 100 μM β-Alanine agonist)
Description: Chinese Hamster Ovary (CHO) cells stably expressing human MRGPRD (Eurofins, San Diego CA) were plated in a 384-well plate at 20,000 cells per well in 12 μL of Optimem (Fisher Scientific 11-058-021). Plates were kept in the incubator at 37° C. overnight. […] Assay plates were read on either a Molecular Devices SpectraMax iD5 plate reader or a BMG ClarioStar plate reader. The HTRF ratio was calculated form the raw data and graphed using GraphPad Prism to calculate IC50 values. […]
pIC50: −log10 of the molar value.
experimental.readout: pIC50

Q) So what does the record say about pIC50 for "CNc1ccc(NC(=O)N2CCC[C@@H](c3nc(-c4cccc(OC)c4)c4ccccn34)C2)cc1" ?
A) > 7.00

Q) So what does the record say about pIC50 for "CN(C)c1ccc(NC(=O)N2CCC[C@@H](c3nc(-c4cccc(S(C)(=O)=O)c4)c4ccccn34)C2)cc1" ?
A) 5.52 to 6.00

Q) So what does the record say about pIC50 for "COc1cccc(-c2nc([C@@H]3CCCN(C(=O)Nc4cccc5ccccc45)C3)n3ccccc23)c1" ?
A) 6.30 to 7.00

Q) So what does the record say about pIC50 for "CC(=O)c1ccc(-c2nc([C@@H]3CCCN(C(=O)Nc4ccc(N(C)C)cc4)C3)n3ccccc23)cc1" ?
A) 6.00 to 6.30

Q) So what does the record say about pIC50 for COc1cccc(-c2nc(C3CCCN(C(=O)Nc4cccc(N(C)C)c4)C3)n3ncccc23)c1 (stereo not shown) ?
A) > 7.00

Q) So what does the record say about pIC50 for "COc1cccc(-c2nc([C@@H]3CCCN(C(=O)Nc4cccc(C(F)(F)F)c4)C3)n3ccccc23)c1" ?
A) 6.00 to 6.30

Q) So what does the record say about pIC50 for COc1cccc(-c2nc(C3CCCN(C(=O)NC(C)(C)C)C3)n3ccccc23)c1 (stereo not shown) ?
A) 6.00 to 6.30

Q) So what does the record say about pIC50 for "COc1cccc(-c2nc([C@@H]3CCCN(C(=O)Nc4noc(C)c4C)C3)n3ccccc23)c1" ?
A) > 7.00

Q) So what does the record say about pIC50 for "COc1cccc(-c2nc([C@@H]3CCCN(C(=O)Nc4cccc(CN(C)C)c4)C3)n3ccccc23)c1" ?
A) 6.30 to 7.00

Q) So what does the record say about pIC50 for "CCOc1cccc(NC(=O)N2CCC[C@@H](c3nc(-c4cccc(OC)c4)c4ccccn34)C2)c1" ?
A) > 7.00

Q) So what does the record say about pIC50 for COc1cccc(NC(=O)N2CCCC(c3nc(-c4cccc(OC)c4)c4ccccn34)C2)c1 (stereo not shown) ?
A) 6.30 to 7.00

Q) So what does the record say about pIC50 for COc1cccc(-c2nc(C3CCCN(S(=O)(=O)c4ccc(F)cc4)C3)n3ccccc23)c1 (stereo not shown) ?
A) < 5.52

Q) So what does the record say about pIC50 for COc1cccc(-c2nc(C3CCCN(C(=O)Nc4ccc(N(C)C)cc4)C3)c3ccccn23)c1 (stereo not shown) ?
A) > 7.00

###

molecular target: human MRGPRD (Homo sapiens); assay: MRGPRD antagonist activity, IP-One HTRF assay in CHO cells stably expressing human MRGPRD (versus 100 μM β-Alanine agonist)
pIC50: −log10 of the molar value.
Field: pIC50. Provide a value for each of the compounds that follow.

Q) Return pIC50 measured with human MRGPRD (Homo sapiens) given this compound: "CN(C)c1ccc(NC(=O)N2CCC[C@@H](c3nc(-c4ccc(-c5ccccc5)cc4)c4ccccn34)C2)cc1"
A) < 5.52

Q) Return pIC50 measured with human MRGPRD (Homo sapiens) given this compound: "COCCNC(=O)N1CCC[C@@H](c2nc(-c3cccc(OC)c3)c3ccccn23)C1"
A) 6.30 to 7.00

Q) Return pIC50 measured with human MRGPRD (Homo sapiens) given this compound: "COc1cccc(-c2nn([C@@H]3CCCN(C(=O)Nc4ccc(N(C)C)cc4)C3)c3ncccc23)c1"
A) > 7.00

Q) Return pIC50 measured with human MRGPRD (Homo sapiens) given this compound: "CN(C)c1ccc(NC(=O)N2CCC[C@@H](c3nc(-c4ccc(C(F)F)cc4)c4ccccn34)C2)cc1"
A) 6.30 to 7.00

Q) Return pIC50 measured with human MRGPRD (Homo sapiens) given this compound: "COc1cccc(-c2nc(C3CCN(C(=O)Nc4ccc(N(C)C)cc4)CC3)n3ccccc23)c1"
A) < 5.52

Q) Return pIC50 measured with human MRGPRD (Homo sapiens) given this compound: "COc1cccc(-c2nc([C@@H]3CCCN(C(=O)NCc4ccc(N(C)C)cc4)C3)n3ccccc23)c1"
A) > 7.00

Q) Return pIC50 measured with human MRGPRD (Homo sapiens) given this compound: COc1cccc(-c2nc(C3CCCN(C(=O)c4ccc(OC)cc4C)C3)n3ccccc23)c1 (stereo not drawn)
A) 6.00 to 6.30

Q) Return pIC50 measured with human MRGPRD (Homo sapiens) given this compound: COc1cccc(-c2nc(C3CCCN(C(=O)Nc4ccc(C)cc4C)C3)n3ccccc23)c1 (stereo not drawn) [Compound 5-5]
A) 6.30 to 7.00

Q) Return pIC50 measured with human MRGPRD (Homo sapiens) given this compound: "COc1cccc(-c2nc([C@@H]3CCCN(C(=O)Nc4ccc(N5CCCC5)cc4)C3)n3ccccc23)c1"
A) 6.30 to 7.00

Values from patent US20240246980A1
